MEASURED ON: T1, human CD26-derived 13 mer peptide 110 (human)
T1 peptide: VKFFVVNTDSLSS
PROTOCOL SUMMARY: peptide microarray
Listed next: entries and their corresponding Mean Signal Value.

# BINDER, Mean Signal Value
rows = [
    ("rhuMAb 412 (antibody, human IgG1, V domains shown, X385 VH and X380 VL with human IgG1 and human kappa constant regions; also called X412) VH: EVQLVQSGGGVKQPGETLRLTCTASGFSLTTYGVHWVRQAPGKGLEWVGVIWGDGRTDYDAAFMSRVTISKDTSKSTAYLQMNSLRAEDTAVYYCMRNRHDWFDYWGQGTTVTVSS VL: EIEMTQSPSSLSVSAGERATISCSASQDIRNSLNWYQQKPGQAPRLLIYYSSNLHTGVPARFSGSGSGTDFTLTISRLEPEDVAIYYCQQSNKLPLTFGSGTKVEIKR", 0),
    ("rhuMAb 420 (antibody, human IgG1, V domains shown, X420 VH and X380 VL with human IgG1 and human kappa constant regions; also called X420 (IgG1)) VH: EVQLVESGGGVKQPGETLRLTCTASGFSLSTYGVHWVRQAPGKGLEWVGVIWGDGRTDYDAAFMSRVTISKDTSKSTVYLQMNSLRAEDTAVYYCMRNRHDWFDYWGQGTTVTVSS VL: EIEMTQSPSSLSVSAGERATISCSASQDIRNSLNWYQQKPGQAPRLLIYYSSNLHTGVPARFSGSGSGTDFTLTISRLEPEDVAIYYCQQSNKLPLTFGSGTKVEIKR", 0),
    ("rhuMAb 409 (antibody, human IgG1, V domains shown, CM03 VH and VL with human IgG1 heavy chain constant region and human kappa constant region; also called X409) VH: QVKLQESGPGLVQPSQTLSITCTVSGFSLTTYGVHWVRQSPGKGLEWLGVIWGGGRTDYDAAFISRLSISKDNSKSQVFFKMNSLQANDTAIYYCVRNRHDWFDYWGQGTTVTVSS VL: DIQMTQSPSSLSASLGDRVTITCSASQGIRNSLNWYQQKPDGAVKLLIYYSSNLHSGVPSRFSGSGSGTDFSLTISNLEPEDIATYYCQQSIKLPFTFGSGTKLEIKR", 0),
    ("rhuMAb 411 (antibody, human IgG1, kappa, V domains shown, also called X411) VH: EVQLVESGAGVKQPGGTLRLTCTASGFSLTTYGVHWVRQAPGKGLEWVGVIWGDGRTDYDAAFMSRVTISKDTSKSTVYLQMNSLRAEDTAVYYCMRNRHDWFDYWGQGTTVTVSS VL: DILLTQSPSSLSATPGERATITCRASQGIRNNLNWYQQKPGQAPRLLIYYSSNLQSGVPSRFSGSGSGTDFTLTISRLQPEDVAAYYCQQSIKLPFTFGSGTKVEIKR", 0.024),
]
